assay: Therapeutic index, ratio of TC50 for human MAGI-CCR5 cells to IC50 for HIV-1 Bal infected in MAGI-CCR5 cells
Mark condition met only when TI stays strictly below 60. Values equal to the cut-off are condition not met.

Consider the worked cases shown below.
In [3]: df
Out[3]:
                                   compound    class_label
0  CC1=C(c2nc(-c3cccc(C#N)c3)cs2)C(c2ccc(O)cc2)NC(=O)N1 (stereo not given)  condition met
1  CC1=C(c2nc(-c3ccccc3)cs2)C(c2cccc(O)c2)NC(=O)N1 (stereo not given)  condition met

Q: Take the compound CC1=C(c2nc(-c3ccc(C#N)cc3)cs2)C(c2ccc3ccccc3n2)NC(=O)N1 (stereo not given) and say whether its TI is less than 60.
A: condition not met

Q: Is the reported TI for COc1ccc(C2NC(=O)NC(C)=C2c2nc(-c3ccc(C#N)cc3)cs2)cn1 (stereo not given) strictly below 60?
A: condition not met

Q: I wonder whether COc1cncc(C2NC(=O)NC(C)=C2c2nc(-c3ccc(C#N)cc3)cs2)c1 (stereo not given) has TI below 60. Can you tell?
A: condition met

Q: Hi there! Is TI for CC1=C(c2nc(-c3ccc(C#N)cc3)cs2)C(c2ccc(OC(F)(F)F)cc2)NC(=O)N1 (stereo not given) below 60, do you know?
A: condition not met

Q: I'd appreciate it if you could check whether COc1ccc(-c2csc(C3=C(C)NC(=O)NC3c3cccc(O)c3)n2)cc1 (stereo not given) has TI smaller than 60.
A: condition met

Q: Please determine if CC1=C(c2nc(-c3cccc(C#N)c3)cs2)C(c2cccc(O)c2)NC(=O)N1C (stereo not given) is below 60 in terms of TI.
A: condition met

Q: Does the reported TI of the following compound sit strictly below 60? CC1=C(c2nc(-c3ccc(C#N)cc3)cs2)C(c2cccc(OC(F)(F)F)c2)NC(=O)N1 (stereo not given)
A: condition met

Q: Find out if reported TI for CC1=C(c2nc(-c3ccc(C(F)(F)F)cc3)cs2)C(c2cccc(O)c2)NC(=O)N1 (stereo not given) is less than 60
A: condition met
